Values were extracted from PubChem BioAssay (NCI).

assay: NCI Yeast Anticancer Drug Screen. Data for the mlh1 strain (AID 171);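 further: 0% = growth of vehicle-treated control cultures of the same strain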; conditions: S. cerevisiae mlh1 strain growth inhibition; at 11.0 µM; hits give high values
Compounds without any hit were thinned out: in the full panel of roughly 79,000, 15% have a hit.
Quantity: growth inhibition (%)
Report only the number, with the unit % understood.

**Q:** Fill blank: measured growth inhibition of the compound CCCCCCC(CCl)c1sc(-c2csc(CCNC(=O)OC(C)(C)C)n2)nc1C(=O)OC (configuration not stated) is ____.
**A:** -4

**Q:** Entry CCCC(=O)OC(OC(=O)CCC)c1ccc([N+](=O)[O-])o1 please
**A:** 0

**Q:** What do you have for Nc1ccc2cc(Br)c3ccccc3c2c1 ?
**A:** -1

**Q:** CC(=O)c1ccc(NCN2C(=O)c3ccccc3C2=O)cc1 ?
**A:** 6

**Q:** Can you handle Cc1ccc(S(=O)(=O)N/N=C/c2c(O)ccc3ccccc23)cc1 next?
**A:** 49

**Q:** Now try Clc1ccc(C(c2ccc(Cl)cc2)N2CCNCC2)cc1 .
**A:** -34

**Q:** What about this compound? O=C(O)[C@H]1[C@@H](C2CCCCC2)O[C@@H](C2CCCCC2)O[C@H]1C(F)(F)F
**A:** -4

**Q:** And the next one, O=C(N/N=C/c1ccc2c(c1)CCC2)c1ccccc1[N+](=O)[O-] ?
**A:** -43

**Q:** Would you kindly repeat that for c1cncc(C(Nc2cccc3cccnc23)Nc2cccc3cccnc23)c1 ?
**A:** 1

**Q:** Repeat with COc1ccc2nc(N/N=C/c3sccc3C)cc(C)c2c1
**A:** 35

**Q:** Then what about the compound CCOC(=O)c1[nH]c2cccc3c2c1CC(Br)C3=O (configuration not stated) ?
**A:** -11

**Q:** Request: O=C(Cc1ccccc1F)NC1=C(Cl)C(=O)c2ccccc2C1=O
**A:** 8

**Q:** Try the compound Nc1c([N+](=O)[O-])cc2c3c(cccc13)CC2
**A:** 20

**Q:** Also check Cc1cnccc1N=Nc1ccc(N(C)C)cc1
**A:** 0

**Q:** And COC(=O)C1(N2CCOCC2)CCC([C@@H](c2ccccc2)C(C)[N+](=O)[O-])C1 (some centres not stated) ?
**A:** 1

**Q:** Moving on to Nc1cccc2cc(Cl)cnc12
**A:** -40

**Q:** And CC[C@]1(O)C[C@H]2CN(CCc3c([nH]c4ccccc34)[C@@](C(=O)OC)(c3cc4c(cc3OC)N(C)[C@H]3[C@@](O)(C(=O)OC)[C@H](OC(C)=O)[C@]5(CC)C=CCN6CC[C@]43[C@@H]65)C2)C1 ?
**A:** -1

###

test: NCI Yeast Anticancer Drug Screen. Data for the bub3 strain (AID 167); conditions: S. cerevisiae bub3 mutant strain, at 33.0 µM, hits give high values
The panel holds about 79,000 compounds, 15% with a hit somewhere; the sample as a whole holds those more often.
Quantity: growth inhibition (%)
The reply should contain only the number, in %.

**Q:** Please look up its growth inhibition: O=C(CCC(=O)c1ccc(O)cc1)Oc1ccc(O)cc1
**A:** 40

**Q:** How about CCCCCC/C(C)=N/Nc1ccc([N+](=O)[O-])cc1[N+](=O)[O-] ?
**A:** -13

**Q:** Follow-up item: COc1ccc(/C=C2\S/C(=N/Nc3nc(-c4ccccc4)cs3)NC2=O)cc1OC
**A:** 97

**Q:** Next: CCCCCCCCCCCCCCCCOCC(Cl)COP(=O)(O)OP(=O)(O)OCC1OC(n2cnc3c(N)ncnc32)C(O)C1O (stereo unspecified)
**A:** 9

**Q:** Same question for OC1C#CCSCC#C/C=C\1 (stereo unspecified) please.
**A:** -10

**Q:** Another: CCN(CC)c1ccc(N=Nc2cc(S(=O)(=O)O)ccc2O)c(O)c1
**A:** 11

**Q:** Also COC1=C(N=[N+]=[N-])C(=O)c2ncccc2C1=O ?
**A:** 72

**Q:** Try the compound Nc1ccc2cc(Br)c3ccccc3c2c1
**A:** -1

**Q:** Same question, O=C(Nn1c(-c2ccccc2)nc2ccccc2c1=O)c1ccc(Cl)cc1 this time
**A:** 93

**Q:** Please give the result for Cc1ccccc1C1=C(CC(=O)O)c2ccccc2CC1C (stereo unspecified) too.
**A:** 93

**Q:** Also, COc1ccc2c(Cc3c4ccccc4cc4ccccc34)cncc2c1O please.
**A:** 45

###

For each entry below, report its growth inhibition value.
Experiment: NCI Yeast Anticancer Drug Screen. Data for the cln2 rad14 strain (AID 165);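 further: 0% = growth equal to vehicle treated cultures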
Details: S. cerevisiae cln2 rad14 strain, at 5.0 µM (retest, dose inferred, filed as 0.5), hits give high values
Procedure: Growth inhibition of yeast strains with defined genetic alterations is measured as a screen for potential anti-cancer activity. Selected strains with alterations in DNA damage repair or cell cycle control were exposed to compounds and growth inhibition was measured relative to vehicle treated controls. The strain used in this assay is cln2 rad14
About 79,000 compounds went through this panel and 15% of them were active in at least one assay; those are over-represented in the sample as a whole.
// return numeric value only (unit: %, not printed)

**Q:** Name the reported growth inhibition value associated with the molecule COc1cc(C(C)(C)C)cc(OC)c1C(O)(c1c(OC)cc(C(C)(C)C)cc1OC)c1c(OC)cc(C(C)(C)C)cc1OC
**A:** 47

**Q:** Please answer likewise for O=C1C(C(O)(C(F)(F)F)C(F)(F)F)CCC1C(O)(C(F)(F)F)C(F)(F)F (stereo not given)
**A:** 83

**Q:** Note, next up: O=C1OC(/C=C/c2ccccc2)Sc2ccccc21 (stereo not given)
**A:** -34

**Q:** // repeat for CCOc1ccccc1N1C(=O)CC(Sc2ccccc2N)C1=O (stereo not given) and report
**A:** 39

**Q:** Check N=c1oc2ccccc2cc1-c1nc2ccccc2[nH]1 too.
**A:** 5

###

experiment: NCI Yeast Anticancer Drug Screen. Data for the CLN2oe strain (AID 163);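 further: 0% = growth of vehicle-only control cultures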; settings: S. cerevisiae CLN2oe strain, at 33.0 µM
About 79,000 compounds went through this panel and 15% of them were active in at least one assay; those are over-represented in the sample as a whole. Activity calls are given as the source filed them. No stated cut-off is given here; in the data, active means growth inhibition above about 70%; inactive means the rest.
Response enum: active, inactive

**Q:** Dear all, I need the recorded test outcome for Cc1nc2ccc(Br)cc2c(=O)n1-c1ccc(NC2OCC(O)C(O)C2O)cc1 (configuration not stated) , thank you.
**A:** inactive

**Q:** Now consider CNC(=O)OCc1c(COC(=O)NC)c(C)n(-c2ccc(Cl)c(Cl)c2)c1C .
**A:** inactive

**Q:** What about COc1ccc(/C=C2\S/C(=N/Nc3nc(-c4ccccc4)cs3)NC2=O)cc1OC ?
**A:** active

**Q:** Now give it for CCCCCCC(CCl)c1sc(-c2csc(CCNC(=O)OC(C)(C)C)n2)nc1C(=O)OC (configuration not stated) too.
**A:** inactive

**Q:** Moving on to C[Si](C)(C)Cc1ccccc1C(=O)O
**A:** inactive

**Q:** Proceed to CC(C)(C(=O)NN)c1ccccc1
**A:** inactive

**Q:** And the next one, O=C1c2ccccc2C2CCC1c1ccccc12 (configuration not stated) ?
**A:** inactive

###

test: NCI Yeast Anticancer Drug Screen. Data for the sgs1 strain (AID 173);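 further: 0% = growth of vehicle-only control cultures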; conditions: S. cerevisiae sgs1 mutant, at 1.2 µM, hits give high values
This is part of a sample that, as a whole, favours compounds with a hit. Of some 79,000 tested, about 15% had one in any assay.
Field: growth inhibition. Provide a value for each of the molecules that follow.
Numbers only here, please. The scale is %.

**Q:** What value of growth inhibition has been recorded for this entry: CC1=NN(C(=O)CC(=O)N(C(=O)c2ccccc2)c2ccc(Cl)cc2)C(=O)C1N=Nc1ccc([N+](=O)[O-])cc1 (stereo unspecified)
**A:** 0

**Q:** Another molecule: O=C1c2ccccc2-c2ccc(NC(=O)C3CCCCC3C(=O)O)cc21 (stereo unspecified)
**A:** 3

**Q:** Entry CCCC#CCOC(=O)c1cc([N+](=O)[O-])cc([N+](=O)[O-])c1 please
**A:** 4

**Q:** Next: Cc1c2ccncc2c(C)c2c1oc1ccccc12
**A:** -5

**Q:** Then this molecule: C#CC1=CC(=O)C(OC)=CC1=O
**A:** 11

**Q:** Please do the same for COc1ccc(CCN2C(=O)C=CC2=O)cc1OC as well.
**A:** 1

###

assay: NCI Yeast Anticancer Drug Screen. Data for the rad50EPP+ strain (AID 151);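 further: 0% = growth of vehicle-treated control cultures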; settings: S. cerevisiae rad50 mutant strain, at 100.0 µM, hits give high values
About 79,000 compounds went through this panel and 15% of them were active in at least one assay; those are over-represented in the sample as a whole.
Quantity: growth inhibition (%)
Give the number; % is assumed, so skip it.

**Q:** I would be grateful if you could share the reported growth inhibition for COc1ccc(CCN2C(=O)C=CC2=O)cc1OC .
**A:** 98

**Q:** And O=S(=O)(O)CC[S][Sn]([S]CCS(=O)(=O)O)([c]1ccccc1)[c]1ccccc1 ?
**A:** -22

**Q:** Try this compound too: Cc1ccc(Cl)c2c(=O)c3ccccc3[nH]c12
**A:** 58

**Q:** One more compound: CC[C@]1(O)C[C@H]2CN(CCc3c([nH]c4ccccc34)[C@@](C(=O)OC)(c3cc4c(cc3OC)N(C)[C@H]3[C@@](O)(C(=O)OC)[C@H](OC(C)=O)[C@]5(CC)C=CCN6CC[C@]43[C@@H]65)C2)C1
**A:** -6
